Readings of pIC50 for the listed compounds
Target: Recombinant Src enzyme (Homo sapiens)
Sequence (P12931 whole entry): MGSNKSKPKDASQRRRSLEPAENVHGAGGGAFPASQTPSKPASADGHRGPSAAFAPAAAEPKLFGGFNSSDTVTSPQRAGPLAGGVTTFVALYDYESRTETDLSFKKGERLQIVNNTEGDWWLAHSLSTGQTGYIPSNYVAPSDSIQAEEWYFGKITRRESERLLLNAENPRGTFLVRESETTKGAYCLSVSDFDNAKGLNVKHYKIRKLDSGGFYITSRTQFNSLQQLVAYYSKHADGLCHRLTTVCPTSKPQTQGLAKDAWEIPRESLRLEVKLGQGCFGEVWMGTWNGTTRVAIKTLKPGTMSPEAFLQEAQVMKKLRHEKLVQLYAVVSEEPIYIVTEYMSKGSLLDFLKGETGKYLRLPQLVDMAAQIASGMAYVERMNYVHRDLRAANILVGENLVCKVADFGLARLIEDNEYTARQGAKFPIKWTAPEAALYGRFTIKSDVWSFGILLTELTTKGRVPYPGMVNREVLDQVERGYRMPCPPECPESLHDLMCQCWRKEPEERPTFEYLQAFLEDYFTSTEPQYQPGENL
Experiment: Src HTRF assay
pIC50: −log10 of the molar value.

Smiles str | Assayed system | pIC50
CC1(C)CN(S(=O)(=O)c2cccc3cccnc23)c2nc(Nc3ccc(N4CCC(CO)CC4)cc3)ncc21 | Recombinant Src enzyme (Homo sapiens) | < 6.00
COCCN1CCN(c2ccc(Nc3cc4c(ccn4S(=O)(=O)c4cccc5cccnc45)cn3)c(OC)c2)CC1 | Recombinant Src enzyme (Homo sapiens) | < 6.00
C[C@H]1CN(c2ccc(Nc3ncc4ccn(Cc5ccccc5N(C)S(C)(=O)=O)c4n3)nc2)CCN1 | Recombinant Src enzyme (Homo sapiens) | < 6.00
CC1(C)CN(S(=O)(=O)c2cccc3cccnc23)c2nc(Nc3ccc(N4CCN(CC(=O)O)CC4)cc3)ncc21 | Recombinant Src enzyme (Homo sapiens) | < 6.00
CC(=O)Nc1ccc(Nc2cc3c(cn2)cnn3Cc2cccnc2N(C)S(C)(=O)=O)cc1 | Recombinant Src enzyme (Homo sapiens) | < 6.00
CC1(C)CN(S(=O)(=O)c2cccc3ccccc23)c2nc(Nc3ccc(N4CCNCC4)cc3)ncc21 | Recombinant Src enzyme (Homo sapiens) | < 6.00
COc1ccccc1S(=O)(=O)n1ccc2cnc(Nc3cccc(NC(C)=O)c3)nc21 | Recombinant Src enzyme (Homo sapiens) | < 6.00
CN(c1ncccc1Cn1ccc2cnc(Nc3ccccc3F)nc21)S(C)(=O)=O | Recombinant Src enzyme (Homo sapiens) | < 6.00
CN(c1ncccc1CN1CCc2cnc(Nc3ccc(N4CCNCC4)cc3)nc21)S(C)(=O)=O | Recombinant Src enzyme (Homo sapiens) | < 6.00
CC(=O)N(C)c1ccccc1Cn1ccc2cnc(Nc3ccc(N4CCC(N(C)C)CC4)cc3)nc21 | Recombinant Src enzyme (Homo sapiens) | < 6.00
CN(c1ncccc1Cn1ccc2cnc(Nc3ccc4c(c3)NC(=O)CC4)nc21)S(C)(=O)=O | Recombinant Src enzyme (Homo sapiens) | > 7.70
O=C1CCc2cc(Nc3ncc4ccn(S(=O)(=O)c5cccc6cccnc56)c4n3)ccc2N1 | Recombinant Src enzyme (Homo sapiens) | > 7.70
CN(C)C1CCN(c2ccc(Nc3ncc4c(C#N)cn(Cc5cccnc5N(C)S(C)(=O)=O)c4n3)cc2)CC1 | Recombinant Src enzyme (Homo sapiens) | < 6.00
C[C@H]1CN(c2ccc(Nc3ncc4ccn(Cc5ccc(C#N)cc5N(C)S(C)(=O)=O)c4n3)cc2)CCN1 | Recombinant Src enzyme (Homo sapiens) | < 6.00
CN1C(=O)CCc2cc(Nc3ncc4ccn(Cc5cccnc5N(C)S(C)(=O)=O)c4n3)ccc21 | Recombinant Src enzyme (Homo sapiens) | > 7.70
CN(c1ncccc1Cn1ccc2cnc(Nc3ccc(N4CCC(O)CC4)cc3)cc21)S(C)(=O)=O | Recombinant Src enzyme (Homo sapiens) | < 6.00
